Quick list: Activity per entry.
Test system: LNCaP
Experiment Summary: Cell cycle arrest in human LNCaP cells by accumulation at G1 phase at 10 uM after 72 hrs by FACS flow cytometry
Type: functional
Quick note: give the figure in %, leave out the unit.

> print(dat)
                                   molecule  readout.label  endpoint.value
1  Cc1ccc(-c2cc(C(F)(F)F)nn2-c2ccc(S(N)(=O)=O)cc2)cc1 [CELECOXIB]       Activity            75.7
2  COC1(c2cc(F)cc(OCc3cc(-c4ccccc4)n(-c4ccc(Cl)c(Cl)c4)n3)c2)CCOCC1       Activity            68.2
3  COC1(c2cc(F)cc(OCc3cc(-c4ccccc4)n(-c4ccc(S(C)(=O)=O)cc4)n3)c2)CCOCC1       Activity            70.1
4  COC1(c2cc(F)cc(OCc3cc(-c4ccccc4)n(-c4ccccc4)n3)c2)CCOCC1       Activity            72.9
5  COC1(c2cc(F)cc(OCc3cc(-c4ccccc4)n(-c4ccc(C)cc4)n3)c2)CCOCC1       Activity            71.3
6  COC1(c2cc(F)cc(OCc3cc(-c4ccccc4)n(-c4ccc(S(N)(=O)=O)cc4)n3)c2)CCOCC1       Activity            74.2
7  COC1(c2cc(F)cc(OCc3cc(-c4ccccc4)n(-c4ccc(C)c(C)c4)n3)c2)CCOCC1       Activity            69.5
8  CS(=O)(=O)c1ccc(C2=C(c3ccccc3)C(=O)OC2)cc1 [ROFECOXIB]       Activity            69.4

Task: Quick check: Activity on LNCaP, item COc1ccc(-n2nc(COc3cc(F)cc(C4(OC)CCOCC4)c3)cc2-c2ccccc2)cc1 ?
Result: 69

* * *

Tested on: LNCaP
Experiment Summary: Cell cycle arrest in human LNCaP cells by accumulation at G2M phase at 10 uM after 72 hrs by FACS flow cytometry
Type: functional
Readout Label: Activity
Number first, unit second.

Solved entries:
> print(dat)
                                item.smiles  endpoint.value
1  COC1(c2cc(F)cc(OCc3cc(-c4ccccc4)n(-c4ccc(F)cc4)n3)c2)CCOCC1           15.3%
2  CS(=O)(=O)c1ccc(C2=C(c3ccccc3)C(=O)OC2)cc1           15.2%
3  COc1ccc(-n2nc(COc3cc(F)cc(C4(OC)CCOCC4)c3)cc2-c2ccccc2)cc1             17%

Turning now to a further record.
Task: Please look up its Activity: COC1(c2cc(F)cc(OCc3cc(-c4ccccc4)n(-c4ccc(Cl)cc4)n3)c2)CCOCC1
Result: 11.1%

* * *

System: LNCaP
Experiment Summary: Cell cycle arrest in human LNCaP cells by accumulation at S phase at 10 uM after 72 hrs by FACS flow cytometry
Assay type: functional
Readout Label: Activity (%)
Quick note: give the figure in %, leave out the unit.

Solved entries:
> print(dat)
                                   compound  experimental.system  endpoint.value
1  COC1(c2cc(F)cc(OCc3cc(-c4ccccc4)n(-c4ccc(S(N)(=O)=O)cc4)n3)c2)CCOCC1                LNCaP             6.9
2  COC1(c2cc(F)cc(OCc3cc(-c4ccccc4)n(-c4ccc(Cl)cc4)n3)c2)CCOCC1                LNCaP            11.1
3  COC1(c2cc(F)cc(OCc3cc(-c4ccccc4)n(-c4ccc(Cl)c(Cl)c4)n3)c2)CCOCC1                LNCaP            11.5
4  COC1(c2cc(F)cc(OCc3cc(-c4ccccc4)n(-c4ccc(C)c(C)c4)n3)c2)CCOCC1                LNCaP            11.5
5  COC1(c2cc(F)cc(OCc3cc(-c4ccccc4)n(-c4ccc(C)cc4)n3)c2)CCOCC1                LNCaP            10.7

Task: Please look up its Activity: COC1(c2cc(F)cc(OCc3cc(-c4ccccc4)n(-c4ccc(S(C)(=O)=O)cc4)n3)c2)CCOCC1
Result: 11.2

Task: Please look up its Activity: COC1(c2cc(F)cc(OCc3cc(-c4ccccc4)n(-c4ccc(F)cc4)n3)c2)CCOCC1
Result: 9.7

Task: Please look up its Activity: COc1ccc(-n2nc(COc3cc(F)cc(C4(OC)CCOCC4)c3)cc2-c2ccccc2)cc1
Result: 11.4

* * *

Experimental System: Polyunsaturated fatty acid 5-lipoxygenase (Homo sapiens)
Sequence (P09917 whole entry): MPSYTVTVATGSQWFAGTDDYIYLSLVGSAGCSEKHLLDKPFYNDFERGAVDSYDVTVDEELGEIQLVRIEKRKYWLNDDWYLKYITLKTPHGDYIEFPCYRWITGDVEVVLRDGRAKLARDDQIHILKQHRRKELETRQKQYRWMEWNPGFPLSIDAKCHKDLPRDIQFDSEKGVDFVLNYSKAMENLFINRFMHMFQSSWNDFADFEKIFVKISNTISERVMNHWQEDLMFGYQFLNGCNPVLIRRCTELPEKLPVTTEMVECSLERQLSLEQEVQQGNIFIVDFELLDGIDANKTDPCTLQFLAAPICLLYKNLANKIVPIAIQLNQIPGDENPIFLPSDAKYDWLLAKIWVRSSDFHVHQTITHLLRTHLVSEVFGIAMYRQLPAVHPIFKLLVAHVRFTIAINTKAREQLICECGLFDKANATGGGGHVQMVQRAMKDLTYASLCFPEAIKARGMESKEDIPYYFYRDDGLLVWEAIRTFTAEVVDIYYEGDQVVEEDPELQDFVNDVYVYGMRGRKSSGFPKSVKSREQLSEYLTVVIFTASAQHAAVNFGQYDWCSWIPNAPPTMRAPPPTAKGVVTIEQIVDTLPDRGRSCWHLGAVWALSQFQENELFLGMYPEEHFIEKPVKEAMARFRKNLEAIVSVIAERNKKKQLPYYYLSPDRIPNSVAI
Experiment Summary: Inhibition of 5LOX in human whole blood assessed as inhibition of calcium ionophore A 23187-stimulated 5HETE production by HPLC analysis
Readout Label: IC50 (nM)
Quick note: give the figure in nM, leave out the unit.

> print(dat)
                                   compound  endpoint.value
1  COC1(c2cc(F)cc(OCc3cc(-c4ccccc4)n(-c4ccc(C)cc4)n3)c2)CCOCC1             720

Turning now to a further record.
Task: Please look up its IC50: COC1(c2cc(F)cc(OCc3cc(-c4ccccc4)n(-c4ccc(Cl)cc4)n3)c2)CCOCC1
Result: 830

* * *

Experimental System: Prostaglandin G/H synthase 1 (Homo sapiens)
Sequence (P23219 whole entry): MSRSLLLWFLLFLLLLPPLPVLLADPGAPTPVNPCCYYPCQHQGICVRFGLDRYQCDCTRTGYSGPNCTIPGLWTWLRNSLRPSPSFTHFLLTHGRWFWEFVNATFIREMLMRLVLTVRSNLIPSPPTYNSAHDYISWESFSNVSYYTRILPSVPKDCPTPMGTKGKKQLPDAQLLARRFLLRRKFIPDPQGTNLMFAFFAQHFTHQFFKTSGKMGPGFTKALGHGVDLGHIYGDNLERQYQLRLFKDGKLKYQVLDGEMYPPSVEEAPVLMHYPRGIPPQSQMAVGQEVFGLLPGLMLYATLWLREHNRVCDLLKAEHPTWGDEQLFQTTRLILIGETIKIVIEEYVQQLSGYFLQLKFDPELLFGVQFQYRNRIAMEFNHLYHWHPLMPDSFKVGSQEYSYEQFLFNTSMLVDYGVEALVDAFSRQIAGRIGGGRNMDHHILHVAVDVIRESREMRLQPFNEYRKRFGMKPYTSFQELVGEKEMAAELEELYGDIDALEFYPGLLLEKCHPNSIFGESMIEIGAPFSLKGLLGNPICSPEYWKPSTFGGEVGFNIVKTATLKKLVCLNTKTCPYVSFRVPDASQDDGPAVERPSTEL
Experiment Summary: Inhibition of COX1 expressed in CHO cells assessed as inhibition of arachidonic acid-stimulated PGE2 production by enzyme immunoassay
Readout Label: IC50 (µM)
Quick note: give the figure in µM, leave out the unit.

> print(dat)
                                item.smiles  endpoint.value
1  CS(=O)(=O)c1ccc(-n2nc(COc3cccc(N4CCOCC4)c3)cc2-c2ccccc2)cc1            38.1
2  COC1(c2cc(F)cc(OCc3cc(-c4ccccc4)n(-c4ccc(C)cc4)n3)c2)CCOCC1            1.56
3  COc1cc(F)cc(OCc2cc(-c3ccccc3)n(-c3ccc(S(C)(=O)=O)cc3)n2)c1            44.3
4  COC1(c2cc(F)cc(OCc3cc(-c4ccccc4)n(-c4ccc(S(C)(=O)=O)cc4)n3)c2)CCOCC1            26.1
5  COc1cc(OC)cc(OCc2cc(-c3ccccc3)n(-c3ccc(S(C)(=O)=O)cc3)n2)c1            25.1
6  COC1(c2cc(F)cc(OCc3cc(-c4ccccc4)n(-c4ccc(F)cc4)n3)c2)CCOCC1            1.13
7  CS(=O)(=O)c1ccc(-n2nc(COc3ccc4c(c3)OCO4)cc2-c2ccccc2)cc1            15.8
8  CS(=O)(=O)c1ccc(-n2nc(COc3cc(F)cc(C#N)c3)cc2-c2ccccc2)cc1            99.6
9  COC1(c2cc(F)cc(OCc3cc(-c4ccccc4)n(-c4ccccc4)n3)c2)CCOCC1            7.14

Turning now to a further record.
Task: Please look up its IC50: COc1cc(OCc2cc(-c3ccccc3)n(-c3ccc(S(C)(=O)=O)cc3)n2)cc(OC)c1OC
Result: 17.6

* * *

Organism: Homo sapiens
Experiment Summary: Selectivity for COX2 over COX1
Readout Label: Selectivity ratio
// response body must contain only the number

Solved entries:
> print(dat)
                                item.smiles  endpoint.value
1  CS(=O)(=O)c1ccc(-n2nc(COc3cc(F)cc(C#N)c3)cc2-c2ccccc2)cc1             176
2  COC1(c2cc(F)cc(OCc3cc(-c4ccccc4)n(-c4ccc(S(N)(=O)=O)cc4)n3)c2)CCOCC1             257
3  COC1(c2cc(F)cc(OCc3cc(-c4ccccc4)n(-c4ccc(C)cc4)n3)c2)CCOCC1               1
4  COc1cc(OC)cc(OCc2cc(-c3ccccc3)n(-c3ccc(S(C)(=O)=O)cc3)n2)c1              29
5  COC1(c2cc(F)cc(OCc3cc(-c4ccccc4)n(-c4ccc(Cl)cc4)n3)c2)CCOCC1               2
6  CS(=O)(=O)c1ccc(-n2nc(COc3ccc4c(c3)OCO4)cc2-c2ccccc2)cc1              35

Task: Please look up its Selectivity ratio: COc1cc(OCc2cc(-c3ccccc3)n(-c3ccc(S(C)(=O)=O)cc3)n2)cc(OC)c1OC
Result: 78

Task: Please look up its Selectivity ratio: COc1cc(F)cc(OCc2cc(-c3ccccc3)n(-c3ccc(S(C)(=O)=O)cc3)n2)c1
Result: 142
